FYI, the data here is from patent EP0419292A1.

log10 of Activity by entry:
- System: human tryptase-like protein
- Assay method text: Enzyme activity with fluorogenic substrates (substrate specificity)
- Type: biochemical
- Condition notes: Substrate 100 µM; 0.1 M Tris-HCl pH 7.8, 25 mM calcium chloride
Starred links: 1 amine or outer side, 2 acyl side, 3 side chain; linkers in the order of their positions; H or OH if unused. Residues, ends and D or L forms follow the SMILES beside them. *: point of attachment. Glutaryl = O=C(CCCC(=O)[*:2])[*:1]; AMC = Cc1cc(=O)oc2cc(N*)ccc12; Boc = CC(C)(C)OC(=O)*
In our notation, the value equals log10 of Activity in µU/ml.

These solved cases illustrate the format of a correct answer.
Cc1cc(=O)oc2cc(NC(=O)[C@H](CCCNC(=N)N)NC(=O)[C@H](CCCNC(=N)N)NC(=O)CNC(=O)OC(C)(C)C)ccc12 [Boc-Gly-Arg-Arg-MCA] : 1.65
CC[C@H](C)[C@H](NC(=O)OC(C)(C)C)C(=O)N[C@@H](CCC(=O)O)C(=O)NCC(=O)N[C@@H](CCCNC(=N)N)C(=O)Nc1ccc2c(C)cc(=O)oc2c1 [Boc-Ile-Glu-Gly-Arg-MCA] (Boc-IEGR-{AMC}) : 2.55
Cc1cc(=O)oc2cc(NC(=O)[C@H](CCCNC(=N)N)NC(=O)[C@H](CCCCN)NC(=O)CNC(=O)OC(C)(C)C)ccc12 [Boc-Gly-Lys-Arg-MCA] (Boc-Gly-Lys-Arg-{AMC}) : 2.25
Cc1cc(=O)oc2cc(NC(=O)[C@H](CCCNC(=N)N)NC(=O)CNC(=O)[C@H](CCC(N)=O)NC(=O)OC(C)(C)C)ccc12 [Boc-Gln-Gly-Arg-MCA] (Boc-Gln-Gly-Arg-{AMC}) : 2.88
Cc1cc(=O)oc2cc(NC(=O)[C@H](CCCNC(=N)N)NC(=O)CNC(=O)CCCC(=O)O)ccc12 [Glt-Gly-Arg-MCA] (Glutaryl-Gly-Arg-{AMC}) : 2.52

Report value: log10 of Activity, system: human tryptase-like protein, compound: Cc1cc(=O)oc2cc(NC(=O)[C@H](CCCNC(=N)N)NC(=O)[C@H](CO)NC(=O)[C@H](Cc3ccccc3)NC(=O)OC(C)(C)C)ccc12 [Boc-Phe-Ser-Arg-MCA] (Boc-Phe-Ser-Arg-{AMC})
2.25

###

- System: human tryptase-like protein
- Assay method text: Enzyme activity with fluorogenic substrates (substrate specificity)
- Format: biochemical
- Condition notes: Substrate 100 µM; 0.1 M Tris-HCl pH 7.8, 25 mM calcium chloride
Residues, ends and D or L forms follow the SMILES beside them. *: point of attachment. AMC = Cc1cc(=O)oc2cc(N*)ccc12; Boc = CC(C)(C)OC(=O)*
Measured metric: Activity (µU/ml)
API: value field is a number in µU/ml; no unit string.

These solved cases illustrate the format of a correct answer.
Cc1cc(=O)oc2cc(NC(=O)[C@H](CCCNC(=N)N)NC(=O)[C@@H]3CCCN3C(=O)[C@@H](NC(=O)OC(C)(C)C)C(C)C)ccc12 [Boc-Val-Pro-Arg-MCA] (Boc-Val-Pro-Arg-{AMC}) : 66.6
Cc1cc(=O)oc2cc(NC(=O)[C@H](CCCCN)NC(=O)[C@H](CCCCN)NC(=O)[C@H](CCC(=O)O)NC(=O)OC(C)(C)C)ccc12 [Boc-Glu-Lys-Lys-MCA] (Boc-Glu-Lys-Lys-{AMC}) : 221.9
Cc1cc(=O)oc2cc(NC(=O)[C@H](CCCNC(=N)N)NC(=O)[C@H](C)NC(=O)[C@H](CCC(N)=O)NC(=O)OC(C)(C)C)ccc12 [Boc-Gln-Ala-Arg-MCA] (Boc-Gln-Ala-Arg-{AMC}) : 532.4

Report value: Activity, system: human tryptase-like protein, molecule: Cc1cc(=O)oc2cc(NC(=O)[C@H](CCCNC(=N)N)NC(=O)[C@@H](NC(=O)[C@H](CC(C)C)NC(=O)OC(C)(C)C)[C@@H](C)O)ccc12 [Boc-Leu-Thr-Arg-MCA] (Boc-Leu-Thr-Arg-{AMC})
110.9

Report value: Activity, system: human tryptase-like protein, molecule: Cc1cc(=O)oc2cc(NC(=O)[C@H](CCCNC(=N)N)NC(=O)[C@H](CCCNC(=N)N)NC(=O)[C@H](CC(C)C)NC(=O)OC(C)(C)C)ccc12 [Boc-Leu-Arg-Arg-MCA] (Boc-Leu-Arg-Arg-{AMC})
110.9
